Please provide measured polymerase ribozyme fitness (log ratio) for the entries that follow.
B1: TPR t1 (parent)
chain: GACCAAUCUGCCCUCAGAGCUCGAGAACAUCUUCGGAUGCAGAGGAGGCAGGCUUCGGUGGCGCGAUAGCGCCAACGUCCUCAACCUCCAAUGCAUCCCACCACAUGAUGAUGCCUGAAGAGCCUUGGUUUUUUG

Variants of: B1
Test: polymerase ribozyme fitness, log enrichment relative to wild type (log ratio); higher = more active; in vitro selection for triplet polymerase activity
Output spec: single numeric token, no unit.

stdin: Data request, read-out polymerase ribozyme fitness (log ratio), for C8U C12G U14G G60A U78G G113A
stdout: -3.01

stdin: For U9A A90U U96C U106A G128C then?
stdout: -5.11

stdin: For C70G C123A then?
stdout: -2.21

stdin: For U9A A84U A121C then?
stdout: 2.06

stdin: For G17A U38G C115A U116A U131C then?
stdout: -2.73

stdin: For C4U G52A C62U C82G G120C then?
stdout: -0.476

stdin: For U9G C40A C76U C114A then?
stdout: -2.63

stdin: For C73A G113C then?
stdout: -2.27

stdin: For G71U C89A U132A then?
stdout: -2.07

stdin: For U9G C11U C53U U81A then?
stdout: -0.54

stdin: For C11A G120U then?
stdout: 0.0217

stdin: For C70U C85U U126A then?
stdout: -3.11
